Target or system PA63-LF binding (Bacillus anthracis, UniProt P13423): recorded inhibition of PA63-LF binding in ELISA, shortening of MAP2 and re-elongation of YWWLTP listed per item.
quantity name: inhibition of PA63-LF binding in ELISA, shortening of MAP2 and re-elongation of YWWLTP

1) YWWLTPPQ : even better efficiency
2) YWWLTPPA : even better efficiency
3) YWWLTPPP [MAP YWWLTPPP] : even better efficiency

###

Target or system PA63-LF binding (Bacillus anthracis, UniProt P13423): recorded inhibition of PA63-LF binding in ELISA, alanine scanning of MAP3 listed per item.
quantity name: inhibition of PA63-LF binding in ELISA, alanine scanning of MAP3

1. NAMTYWWLDPPL [MAP3V/A] : better efficiency
2. AVMTYWWLDPPL : better efficiency
3. NVMTYWWLAPPL : better efficiency
4. NVMTYWWLDPPA : better efficiency
